# System: RARb:RXRa (NR concentration 270 nM, RXRa partner concentration 90 nM)
# PROTOCOL_DESCRIPTION: PBM binding z-score (relative to random genomic background probes); higher = stronger binding; sequences stand for … in GC…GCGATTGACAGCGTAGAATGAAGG
Classify as follows. Reported PBM binding z-score greater than or equal to 2: condition met. Reported PBM binding z-score below: condition not met.

Solved cases below.
| MACROMOLECULE_SEQUENCE | TESTED_TARGET | ASSIGNED_CLASS |
| --- | --- | --- |
| CCTACTGGGCCATTCAGAGGCCATTGATCATATG | RARb:RXRa (NR concentration 270 nM, RXRa partner concentration 90 nM) | condition not met |
| TCATATAGGAAAATGCTAGGTGAAAGTCCGATCT | RARb:RXRa (NR concentration 270 nM, RXRa partner concentration 90 nM) | condition not met |
| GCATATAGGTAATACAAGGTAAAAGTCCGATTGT | RARb:RXRa (NR concentration 270 nM, RXRa partner concentration 90 nM) | condition not met |

# input Does the reported PBM binding z-score for TATCCTAGGTCATTGGGCCAGTATAGTACGCATC fall at or above the 2 mark?
# output condition met

# input Try the sequence ATCGAAAGCTCGTGAGGTGAGTATACAGAAAGGC
# output condition not met

# input Try this sequence next: ACGATTAGTTGACTTAGGGCAACCGATACGACGC
# output condition not met

# input Another sequence to look at: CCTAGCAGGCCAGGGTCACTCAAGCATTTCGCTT
# output condition met

# input # iterate: CGAACGATGGCATGAGTTGATAGCAAATGCCGAT
# output condition not met

# input Next up: AGAATGAGATTAAGATCAGGGAAACAGAATACAT
# output condition not met

# input What do we get for CCGACTGGGGCAGATAGGTTACCATACCATCCGG ?
# output condition not met

---

# System: PPARg:RXRa 270nM:90nM, anti-RXR (NR concentration 270 nM, RXRa partner concentration 90 nM)
# PROTOCOL_DESCRIPTION: PBM binding z-score (relative to random genomic background probes); higher = stronger binding; sequences stand for … in GC…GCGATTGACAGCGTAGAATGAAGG
Lab note: anything with PBM binding z-score at or over 1 counts as Criterion met; the rest go in Criterion not met.

Please review the entries below; each comes with its answer.
| MACROMOLECULE_SEQUENCE | ASSIGNED_CLASS |
| --- | --- |
| AGAATGAGGTTATCAAGATCAGGGAATTGCGGTC | Criterion met |
| ATCGAAATGTCGAAGGTGAGTATACCCACCCGAA | Criterion not met |
| TCTTGTAGATCAACAGAGGTTAAGAAAGTGCGCT | Criterion met |
| CAAACTAGGTCAAGGCCAAAGTCGGTTTGTGCCA | Criterion met |
| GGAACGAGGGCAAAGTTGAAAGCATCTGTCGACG | Criterion met |
| ACTTACGGGTCAACGAGCTTATAGCACGCGTATA | Criterion met |

# input Confirm if PBM binding z-score reported for the sequence ATCTCTAGGTAACACGTTCAGTGAAAGAGAGGAC is 1 or above.
# output Criterion met

# input Consider next the sequence CCAGACAGGTGAAAGGTAAGTCAGTCTGGTACGC in the same way.
# output Criterion met

# input Now the same for CCGACTGGTGCAGAAAGGTTACCATACCATCCGG
# output Criterion met

# input Okay, and TCTAGCAGGCCAGAGAGTCACTCAAGAGGTACGG ?
# output Criterion met

# input Lookup CCTAGCAGGCCAAGGTCACTCAAGCATTTCGCTT
# output Criterion met

---

# Tested on: PPARa:RXRa (NR concentration 270 nM, RXRa partner concentration 90 nM)
# PROTOCOL_DESCRIPTION: PBM binding z-score (relative to random genomic background probes); higher = stronger binding; sequences stand for … in GC…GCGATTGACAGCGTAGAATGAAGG
TEST_READOUT: PBM binding z-score
Kindly provide the number alone.

As a guide, the following entries are already answered.
| MACROMOLECULE_SEQUENCE | TESTED_TARGET | TEST_READOUT | RECORDED_VALUE |
| --- | --- | --- | --- |
| CGAACTAGGTTAAGGACAGTGAATCTCCGCACGC | PPARa:RXRa (NR concentration 270 nM, RXRa partner concentration 90 nM) | PBM binding z-score | 2.14 |
| ATCTCTAGGTAAAAGTACAGTGAATCCCGAGGAT | PPARa:RXRa (NR concentration 270 nM, RXRa partner concentration 90 nM) | PBM binding z-score | 0.877 |
| GATACAGGGTCAAGGGCAGAGTACGCGTATTGAT | PPARa:RXRa (NR concentration 270 nM, RXRa partner concentration 90 nM) | PBM binding z-score | 5.92 |
| CAGCCTAGGTCAGGGCCAGTATTGGAGGAACGTT | PPARa:RXRa (NR concentration 270 nM, RXRa partner concentration 90 nM) | PBM binding z-score | 2.03 |
| GCTTATAGGTAATACAAGGTGAAAGTCCGATTGT | PPARa:RXRa (NR concentration 270 nM, RXRa partner concentration 90 nM) | PBM binding z-score | 1.5 |
| CGTCCACGGTCAGAGAGGTCAGTGAATGCCGAGT | PPARa:RXRa (NR concentration 270 nM, RXRa partner concentration 90 nM) | PBM binding z-score | 2.33 |
| ATATGTAGGTTAGCTGGGGTCATTCAGACTAGGC | PPARa:RXRa (NR concentration 270 nM, RXRa partner concentration 90 nM) | PBM binding z-score | 5.13 |
| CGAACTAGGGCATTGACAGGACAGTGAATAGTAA | PPARa:RXRa (NR concentration 270 nM, RXRa partner concentration 90 nM) | PBM binding z-score | 2.23 |
| CCTATTAGTTGACCATAAGGGCAACCGCAGCTCG | PPARa:RXRa (NR concentration 270 nM, RXRa partner concentration 90 nM) | PBM binding z-score | 0.449 |
| CCTAGTTGGTCAAGGTCGCACACGCTATAGGTAC | PPARa:RXRa (NR concentration 270 nM, RXRa partner concentration 90 nM) | PBM binding z-score | 1.68 |

# input Bench note: what PBM binding z-score did CCTACTGGGCTATCAGGTCATTGATATCAACGTT show?
# output 2.01

# input Ok, now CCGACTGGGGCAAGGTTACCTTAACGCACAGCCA
# output 1.97

---

Below: a set of entries, each annotated with reported PBM binding z-score.
# System: PPARg:RXRa 90nM:30nM, anti-RXR (NR concentration 90 nM, RXRa partner concentration 30 nM)
# PROTOCOL_DESCRIPTION: PBM binding z-score (relative to random genomic background probes); higher = stronger binding; sequences stand for … in GC…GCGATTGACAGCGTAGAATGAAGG
Lab note: write the figure by itself, no unit.

As a guide, the following entries are already answered.
| MACROMOLECULE_SEQUENCE | PBM binding z-score |
| --- | --- |
| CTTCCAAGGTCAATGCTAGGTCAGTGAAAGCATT | 3.45 |
| AATACAGGGTCATCGTAGGCCAGGGTACGCACAG | 4.9 |
| TCATATAGGTAAATGATAGGTGAAAGTCCGATCT | 3.23 |
| GCATATAAGTAATACAAGGTGAAAGTCCGATTGT | 0.301 |
| GCGACGGGGGCAAAGCAGGTTACCATAAGGTTGG | 3.04 |
| GCTAGCAGGGCATTTGGGTCACTCAATGACGGGC | 0.478 |

# input Which PBM binding z-score is reported for this sequence? AATACAGGGTCATCATAGGCCAGAGTACGCACAG
# output 4.41

# input Now give it for TATACAGGGTCAAAGGCCGGAGTACGAATGTCGA too.
# output 6.51

# input Entry to check: CGAACCAGGTCATCCAGGACAGTGAATACATTGA
# output 3.59

# input What do we get for CCTAGTTGGTCAGGGTCACACACGCTATAGGTAC ?
# output 2.6

# input # repeat for GTAACAAGGTGAATAGGTCGTTGATGAGTAGGCG
# output 2.48

# input Moving on to CGTCCAAGGTCCAAGGTCAGTGAAGAGATGACGG
# output 1.66

---

# System: PPARg DBDmut:RXRa IVT, anti-PPARg (DBD mutation: PPARg1 K132A/R137A, NR concentration 270 nM, RXRa partner concentration 90 nM)
# PROTOCOL_DESCRIPTION: PBM binding z-score (relative to random genomic background probes); higher = stronger binding; sequences stand for … in GC…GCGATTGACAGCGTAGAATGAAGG
Recorded PBM binding z-score by entry

// solved cases for PBM binding z-score follow
| MACROMOLECULE_SEQUENCE | PBM binding z-score |
| --- | --- |
| CAAACTAGGTCACAGACGTCAAAGTCCGTGCGTA | 3 |
| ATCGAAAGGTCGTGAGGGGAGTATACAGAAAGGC | 1.57 |
| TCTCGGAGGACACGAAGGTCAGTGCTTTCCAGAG | -0.7 |
| GCTTACGGGTCAAAGGTTAGAGCATGAATAGAAT | 0.587 |
| CAAACTAGGTGACCGGAAGGTCAAAGTCCGCATG | 2.87 |

# input Look up PBM binding z-score for this sequence: CCTATTGGGCCATCAGGTCATTGATATCAACGTT
# output 0.758

# input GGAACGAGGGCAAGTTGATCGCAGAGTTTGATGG , same question.
# output 0.162

# input Also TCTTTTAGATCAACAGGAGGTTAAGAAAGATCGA ?
# output 1.33

# input Can you handle ATATGTAGGTTACATCCGGTTCATTCAGGCTATG next?
# output 3.76

# input Next up: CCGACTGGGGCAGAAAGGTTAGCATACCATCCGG
# output -0.783
